Just for reference, the supplement of paper PMC12582362 is where these values come from.

Please go through the items and note down their light-induced TopBP1 condensate (z-score).
- Test system: optoTopBP1 Flp-In 293 T-REx (HEK293) cells
- Experiment Notes: light-induced TopBP1 condensate (nuclear foci) count, plate-normalised robust z-score vs non-control wells; higher = more TopBP1 condensates (negative = condensation inhibitor), active = hit call of the paper
- Assay Setup: 10 µM; incubation time 2 h
Structures can show the parent of a compound that is named as a salt. The campaign covered roughly 1,500 compounds. About 30 (2%) showed activity. For the sample, actives were picked, then their nearest neighbours and some compounds at random.
Provide a numeric answer; units are not to be included.

Query string: Which light-induced TopBP1 condensate (z-score) is reported for this molecule? `COc1ccc(C2C(=O)c3ccccc3C2=O)cc1`
Result string: 0.789

Query string: Would you mind doing Cc1cc(/C=C/c2ccc3cc(N(C)C)ccc3[n+]2C)c(C)n1-c1ccccc1 [Pyrvinium pamoate] as well?
Result string: -4.74

Query string: Would you mind doing O=C(Cn1c(=O)sc2ccc(Cl)cc21)N1CCN(CCO)CC1 [Tiaramide Hydrochloride] as well?
Result string: 0.609

Query string: Would you mind doing COc1cc([S+](C)[O-])ccc1-c1nc2cccnc2[nH]1 (stereo not drawn) as well?
Result string: 1.19

Query string: Would you mind doing CCc1c2c(nc3ccc(OC(=O)N4CCC(N5CCCCC5)CC4)cc13)-c1cc3c(c(=O)n1C2)COC(=O)[C@]3(O)CC [Irinotecan hydrochloride trihydrate] as well?
Result string: 1.07

Query string: Would you mind doing CCN(CC)C(=O)Nc1ccc(OCC(O)CNC(C)(C)C)c(C(C)=O)c1 (stereo not drawn) [Celiprolol hydrochloride] as well?
Result string: -0.488

Query string: Would you mind doing `CC(C)Nc1cccnc1N1CCN(C(=O)c2cc3cc(NS(C)(=O)=O)ccc3[nH]2)CC1` as well?
Result string: 0.915

Query string: Would you mind doing `Cc1nc2ccccc2n1Cc1ccc(Cl)cc1` as well?
Result string: -0.19
